Measurement record for human factor XIa (Homo sapiens, UniProt P03951); quantity recorded: IC50.
Structures can show the parent of a compound that is named as a salt.
measure: IC50 (nM)

P: CN(C)CCCOc1ccc(-c2cccc(C[C@H](NC(=O)[C@H]3CC[C@H](CN)CC3)C(=O)Nc3ccc(-c4nnc(C(F)(F)F)[nH]4)cc3)c2)cn1 [Example 101, hydrochloride]
Q: Cc1cc(C(=O)NC2CCNCC2)ccc1-c1cccc(C[C@H](NC(=O)[C@H]2CC[C@H](CN)CC2)C(=O)Nc2ccc(-c3nnn[nH]3)cc2)c1 [Example 15, hydrochloride]
R: CN(C)c1ccc(-c2cccc(C[C@H](NC(=O)[C@H]3CC[C@H](CN)CC3)C(=O)Nc3ccc(-c4nnn[nH]4)cc3)c2)cn1 [Example 71, hydrochloride]
(Q) Put the entries in order of IC50, starting with the largest number. To answer, arrange all of the labels according to the requested order.
(A) P, Q, R

I: CC(=O)Nc1ccc(Cl)c(-c2cccc(C[C@H](NC(=O)[C@H]3CC[C@H](CN)CC3)C(=O)Nc3ccc(-c4nnn[nH]4)cc3)c2)c1 [Example 86, hydrochloride]
II: COc1ccc(C[C@H](NC(=O)[C@H]2CC[C@H](CN)CC2)C(=O)Nc2ccc(-c3nn[nH]n3)cc2)cc1-c1ccc(C(=O)NCCN)cc1C [Example 58, hydrochloride]
(Q) Returns: the label, I or II , whose recorded IC50 is the lower number. Provide the label of your selected option as the answer.
(A) I

A: CN(C)CCCOc1ccc(-c2cccc(C[C@H](NC(=O)[C@H]3CC[C@H](CN)CC3)C(=O)Nc3ccc(-c4nnc(Cl)[nH]4)cc3)c2)cn1 [Example 90, hydrochloride]
B: CN1CCN(c2cc(-c3cccc(C[C@H](NC(=O)[C@H]4CC[C@H](CN)CC4)C(=O)Nc4ccc(-c5nnn[nH]5)cc4)c3)ccn2)CC1 [Example 65, hydrochloride]
(Q) Pick one: A or B . Which has the bigger IC50 number? Provide the label of your selected option as the answer.
(A) B

I: Cc1ccc(S(=O)(=O)N2CCCC2)cc1-c1cccc(C[C@H](NC(=O)[C@H]2CC[C@H](CN)CC2)C(=O)Nc2ccc(-c3nnn[nH]3)cc2)c1 [Example 2, hydrochloride]
II: NC[C@H]1CC[C@H](C(=O)N[C@@H](Cc2cccc(-c3cnc(O)nc3)c2)C(=O)Nc2ccc(-c3nnn[nH]3)cc2)CC1 [Example 99, hydrochloride]
III: NC[C@H]1CC[C@H](C(=O)N[C@@H](Cc2cccc(-c3cnc(NC4CC4)nc3)c2)C(=O)Nc2ccc(-c3nnn[nH]3)cc2)CC1 [Example 82, hydrochloride]
(Q) Ordering: ascending IC50. To answer, arrange all of the labels according to the requested order.
(A) I, III, II

A: NC[C@H]1CC[C@H](C(=O)N[C@@H](Cc2cccc(-c3cccc(C(=O)NCCN4CCCC4)c3)c2)C(=O)Nc2ccc(-c3nnn[nH]3)cc2)CC1 [Example 61, hydrochloride]
B: Cc1cc(C(=O)NC2C3CNCC32)ccc1-c1cccc(C[C@H](NC(=O)C2CCC(CN)CC2)C(=O)Nc2ccc(-c3nnn[nH]3)cc2)c1 (stereo partly drawn) [Example 33, hydrochloride]
C: NC[C@H]1CC[C@H](C(=O)N[C@@H](Cc2cccc(-c3ccccc3S(=O)(=O)N3CCOCC3)c2)C(=O)Nc2ccc(-c3nn[nH]n3)cc2)CC1 [Example 54, hydrochloride]
(Q) Thanks in advance: please rank these 3 entries by IC50, highest to lowest. To answer, arrange all of the labels according to the requested order.
(A) A, B, C
(A: 12 nM, B: 7.6 nM, C: 1.9 nM)

A: CN1CCN(C(=O)c2ccc(-c3cccc(C[C@H](NC(=O)[C@H]4CC[C@H](CN)CC4)C(=O)Nc4ccc(-c5nnn[nH]5)cc4)c3)cc2)CC1 [Example 46, hydrochloride]
B: CN(C)C(=O)c1cccc(-c2cccc(C[C@H](NC(=O)[C@H]3CC[C@H](CN)CC3)C(=O)Nc3ccc(-c4nnn[nH]4)cc3)c2)c1 [Example 43, hydrochloride]
(Q) Pick one: A or B . Which has the bigger IC50 number? Provide the label of your selected option as the answer.
(A) A
(A: 7.9 nM, B: 5.2 nM)

I: Cc1ccc(S(=O)(=O)NCc2ccccc2)cc1-c1cccc(C[C@H](NC(=O)[C@H]2CC[C@H](CN)CC2)C(=O)Nc2ccc(-c3n[nH]c(=O)[nH]3)cc2)c1 [Example 13, hydrochloride]
II: CN1CCN(c2ncc(-c3cccc(C[C@H](NC(=O)[C@H]4CC[C@H](CN)CC4)C(=O)Nc4ccc(-c5nnc(Cl)[nH]5)cc4)c3)cn2)CC1 [Example 91, hydrochloride]
III: COCCOCCOCCNC(=O)c1ccc(C)c(-c2cccc(C[C@H](NC(=O)[C@H]3CC[C@H](CN)CC3)C(=O)Nc3ccc(-c4nnn[nH]4)cc3)c2)c1 [Example 20, hydrochloride]
IV: COc1ccc(C[C@H](NC(=O)[C@H]2CC[C@H](CN)CC2)C(=O)Nc2ccc(-c3nn[nH]n3)cc2)cc1-c1ccc(C(=O)NC2CCNCC2)cc1C [Example 56, hydrochloride]
(Q) Thanks in advance: please rank these 4 entries by IC50, highest to lowest. To answer, arrange all of the labels according to the requested order.
(A) IV, I, II, III

a: Cc1ccc(S(=O)(=O)N2CCOCC2)cc1-c1cccc(C[C@H](NC(=O)[C@H]2CC[C@H](CN)CC2)C(=O)Nc2ccc(-c3n[nH]c(=O)[nH]3)cc2)c1 [Example 9, hydrochloride]
b: NC[C@H]1CC[C@H](C(=O)N[C@@H](Cc2cccc(-c3cccc(S(N)(=O)=O)c3)c2)C(=O)Nc2ccc(-c3nnn[nH]3)cc2)CC1 [Example 5, hydrochloride]
(Q) Returns: the label, a or b , whose recorded IC50 is the lower number. Provide the label of your selected option as the answer.
(A) b
(b: 3.4 nM, a: 9.6 nM)
